MEASURED TARGET: somatostatin receptor SST-1 (CHO-SST-1 (mb)) (Homo sapiens (Human), UniProt P30872 1-391)
Sequence (P30872 whole entry, form in doubt): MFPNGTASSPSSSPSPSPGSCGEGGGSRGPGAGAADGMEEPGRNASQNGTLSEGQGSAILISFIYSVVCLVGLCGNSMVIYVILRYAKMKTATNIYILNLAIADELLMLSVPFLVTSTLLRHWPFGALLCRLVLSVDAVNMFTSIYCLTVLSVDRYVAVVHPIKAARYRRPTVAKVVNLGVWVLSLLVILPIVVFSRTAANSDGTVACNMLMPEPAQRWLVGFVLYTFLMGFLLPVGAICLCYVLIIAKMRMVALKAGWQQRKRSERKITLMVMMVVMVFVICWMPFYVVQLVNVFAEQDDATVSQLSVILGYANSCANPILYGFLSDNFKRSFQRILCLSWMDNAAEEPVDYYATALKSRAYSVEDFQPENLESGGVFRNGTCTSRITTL
TEST NAME: radioligand competition binding, CHO-SST-1 (mb)
REPORTED ENDPOINT: Ki

BINDER	REPORTED ENDPOINT	READOUT VALUE
TGRRRGGFCYWKVCT ([TcO]3+ core chelated by the N-terminal HTGRRR tag; free N-terminus; the RC-121 part carries D-Phe, D-Trp, a C-terminal amide and the preserved disulfide bridge) [TcO[HTGRRRGG-RC-121]]	Ki	58 nM
